molecular target: T1, human plasma Kallikrein (human, UniProt P03952 20-638, limits assumed); assay: enzyme inhibition assay
T1 construct: also called hPK; human PK
T1 sequence (P03952 20-638 limits assumed): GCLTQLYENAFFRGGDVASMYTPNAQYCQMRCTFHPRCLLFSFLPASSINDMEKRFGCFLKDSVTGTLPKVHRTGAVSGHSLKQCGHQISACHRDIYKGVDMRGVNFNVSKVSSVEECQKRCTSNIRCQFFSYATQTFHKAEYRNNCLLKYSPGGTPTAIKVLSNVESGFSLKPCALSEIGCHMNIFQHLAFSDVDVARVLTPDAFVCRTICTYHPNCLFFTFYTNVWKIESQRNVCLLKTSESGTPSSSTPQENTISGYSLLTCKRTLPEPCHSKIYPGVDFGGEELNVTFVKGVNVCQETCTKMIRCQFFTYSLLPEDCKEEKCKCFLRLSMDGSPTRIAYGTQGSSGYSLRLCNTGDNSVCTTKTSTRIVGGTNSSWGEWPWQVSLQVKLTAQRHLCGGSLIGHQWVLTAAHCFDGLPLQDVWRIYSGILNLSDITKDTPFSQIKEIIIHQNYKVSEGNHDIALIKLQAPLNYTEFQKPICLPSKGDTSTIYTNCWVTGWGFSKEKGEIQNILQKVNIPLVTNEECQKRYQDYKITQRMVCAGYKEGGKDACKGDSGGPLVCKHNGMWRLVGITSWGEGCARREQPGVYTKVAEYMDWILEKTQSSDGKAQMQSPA
Numbered stars: 1 amine (or outer) side, 2 acyl side, 3 side chain; on linkers, the order of the positions; unused ones are H or OH. Bridge positions count the residues as written; N and C are the ends. Square brackets hold non-standard residues; d marks the D form. 2Nal = N[C@@H](Cc1ccc2ccccc2c1)C(=O)O; TBMB = c1c(C[*:1])cc(C[*:3])cc1C[*:2]; Cha = N[C@@H](CC1CCCCC1)C(=O)O
QUANTITY: Ki (nM)
Supply the numeric figure in nM, leaving out any unit text.

BINDER: Ac-CS[Cha]PARCLHQDLC-NH2 (linker 1-7-13 via TBMB; SMILES CC(=O)N[C@H]1CSCc2cc3cc(c2)CSC[C@H](NC(=O)[C@H](CCCNC(=N)N)NC(=O)[C@H](C)NC(=O)[C@@H]2CCCN2C(=O)[C@H](CC2CCCCC2)NC(=O)[C@H](CO)NC1=O)C(=O)N[C@@H](CC(C)C)C(=O)N[C@@H](Cc1c[nH]cn1)C(=O)N[C@@H](CCC(N)=O)C(=O)N[C@@H](CC(=O)O)C(=O)N[C@@H](CC(C)C)C(=O)N[C@H](C(N)=O)CSC3) [Ac-(06-34-18) Cha2]
Ki (nM): 4.7

Moving on to the next binder.
The binder listed as Ac-CS[2Nal]PARCLHQDLC-NH2 (linker 1-7-13 via TBMB; SMILES CC(=O)N[C@H]1CSCc2cc3cc(c2)CSC[C@H](NC(=O)[C@H](CCCNC(=N)N)NC(=O)[C@H](C)NC(=O)[C@@H]2CCCN2C(=O)[C@H](Cc2ccc4ccccc4c2)NC(=O)[C@H](CO)NC1=O)C(=O)N[C@@H](CC(C)C)C(=O)N[C@@H](Cc1c[nH]cn1)C(=O)N[C@@H](CCC(N)=O)C(=O)N[C@@H](CC(=O)O)C(=O)N[C@@H](CC(C)C)C(=O)N[C@H](C(N)=O)CSC3) [Ac-(06-34-18) 2NAL2] has a reported Ki of 0.5
